study-target: human sodium-dependent glucose transporter 2 (SGLT2, SLC5A2) (Homo sapiens)
Construct: Bases 21 to 2039 correspond to the complete coding region of human SGLT2
Sequence (P31639 whole entry): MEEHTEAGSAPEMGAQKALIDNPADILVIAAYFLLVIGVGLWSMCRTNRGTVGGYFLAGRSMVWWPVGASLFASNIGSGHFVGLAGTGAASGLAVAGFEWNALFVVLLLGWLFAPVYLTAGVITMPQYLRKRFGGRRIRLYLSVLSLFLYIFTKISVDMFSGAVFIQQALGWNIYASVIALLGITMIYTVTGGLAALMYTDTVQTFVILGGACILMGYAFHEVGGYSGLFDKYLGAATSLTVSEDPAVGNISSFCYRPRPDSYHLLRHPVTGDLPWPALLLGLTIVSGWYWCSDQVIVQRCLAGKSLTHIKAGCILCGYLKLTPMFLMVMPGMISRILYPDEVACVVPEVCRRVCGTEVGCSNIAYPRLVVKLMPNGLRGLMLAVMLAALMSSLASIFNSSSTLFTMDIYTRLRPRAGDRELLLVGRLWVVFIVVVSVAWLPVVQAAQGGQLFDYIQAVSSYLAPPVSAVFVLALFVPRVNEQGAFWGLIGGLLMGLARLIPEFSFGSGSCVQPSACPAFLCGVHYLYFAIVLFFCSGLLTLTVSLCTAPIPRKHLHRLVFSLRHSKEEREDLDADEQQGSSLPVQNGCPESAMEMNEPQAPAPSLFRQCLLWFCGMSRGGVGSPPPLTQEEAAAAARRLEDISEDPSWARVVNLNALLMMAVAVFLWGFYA
assay-explanation: Inhibition of methyl-D-glucopyranoside uptake in CHO-TRex-hSGLT2 cells
reported-conditions: recombinant SGLT2; read-out: IC50 SGLT 2
reported-endpoint: IC50 (nM)

molecule: CCc1ccc(Cc2ccccc2OC2OC(CO)C(F)C(O)C2O)cc1 (stereo not shown)
study-target: human sodium-dependent glucose transporter 2 (SGLT2, SLC5A2) (Homo sapiens)
measured: 29
--
molecule: COc1ccc(Cc2ccccc2OC2OC(CO)C(F)C(O)C2O)cc1 (stereo not shown)
study-target: human sodium-dependent glucose transporter 2 (SGLT2, SLC5A2) (Homo sapiens)
measured: 34
--
molecule: COc1ccc(Cc2c(OC3OC(CO)C(F)C(O)C3O)n[nH]c2C(F)(F)F)cc1 (stereo not shown)
study-target: human sodium-dependent glucose transporter 2 (SGLT2, SLC5A2) (Homo sapiens)
measured: 88
--
molecule: CC(C)c1[nH]nc(OC2OC(CO)C(F)C(O)C2O)c1Cc1ccc(CCCC(=O)NC(CO)(CO)CO)cc1 (stereo not shown)
study-target: human sodium-dependent glucose transporter 2 (SGLT2, SLC5A2) (Homo sapiens)
measured: 318
